System: Human tumour cells (cell line panel)
Assay: Proliferation assay: cell line panel (crystal violet, 4 days)
Format: cell-based
Settings: NCI-H1836, lung cancer, small cell, 5000 cells/well, read-out: Result Category, IC50 (mean)
From the text: Human tumour cells were originally obtained from the American Type Culture Collection (ATCC), from Cell Line Services GmbH (CLS), from the Deutsche Sammlung von Mikroorganismen und Zellkulturen (DSMZ, German Collection of Microorganisms and Cell Cultures), from the Japanese Cancer Research Resources Bank (JCRB), from Public Health England, from the European Collection of Authenticated Cell Cultures (ECACC), from Asterand Biosciences, or from the National Cancer Institute (NCI). […]
testReadout: IC50

Q: # return recorded IC50 for input Brc1cnn2c(NCc3nc4ccccc4[nH]3)nc(N3CCOCC3)nc12 [Example 4]
A: 0.03 to 0.1 µM
